# System: Staphylococcus aureus (MSSA) biofilms
# protocolText: Minimum biofilm eradication concentration (MBEC), regrowth assay
# Assay type: cell-based
# experimentalContext: Table 1
outcomeMeasure: MBEC v SA (µM)
Report only the number, with the unit µM understood.

Recorded results for 2 molecules are shown here.
CCCCCCCCCCCC[N+](C)(C)CCN(C)CCN(C)CC[N+](C)(C)CCCCCCCCCCCC [N4-12,0,0,12]: 50
CCCCCCCCCCCC[N+](C)(C)CCCN(C)CCC[N+](C)(C)CCCCCCCCCCCC [12(3)0(3)12]: 37.5

Req: // query MBEC v SA value for entry CCCCCCCCCCCC[N+](C)(C)CCC[N+](C)(C)CCC[N+](C)(C)CCCCCCCCCCCC [12(3)1(3)12]
Resp: 50

Req: Quick check: MBEC v SA of CCCCCCCCCCC[n+]1ccc(-c2cc[n+](CCCCCCCCCCC)cc2)cc1 [PQ-11,11] ?
Resp: 50

----------
Recorded MIC HA-MRSA, one value per entry.
# System: hospital-acquired methicillin-resistant Staphylococcus aureus HA-MRSA (ATCC 33591)
# protocolText: Minimum inhibitory concentration (MIC)
# Assay type: cell-based
# experimentalContext: Table 6
Write down the numeric answer in µM and omit the unit.

CCCCCCCCCCCCC[N+](C)(C)CCCN(CCC[N+](C)(C)CCCCCCCCCCCCC)CCC[N+](C)(C)CCCCCCCCCCCCC: 1

Req: Which MIC HA-MRSA value belongs to CCCCCCCCCCCCCCCCCC[N+](C)(C)CCCN(CCC[N+](C)(C)CCCCCCCCCCCCCCCCCC)CCC[N+](C)(C)CCCCCCCCCCCCCCCCCC ?
Resp: 32

Req: For the molecule shown here, C=CC[N+](CCC[N+](C)(C)CCCCCCCCCCCCC)(CCC[N+](C)(C)CCCCCCCCCCCCC)CCC[N+](C)(C)CCCCCCCCCCCCC , give the reported MIC HA-MRSA.
Resp: 1

----------
# Tested on: Staphylococcus aureus (SA; MSSA SH1000)
# protocolText: Minimum inhibitory concentration (MIC)
# Type: cell-based
# experimentalContext: Table 6
This section presents compounds with their documented MIC SA values.
Number in µM, nothing else.

Solved entries (count: 5):
CCCCCCCCCC[N+](C)(C)CCCN(CCC[N+](C)(C)CCCCCCCCCC)CCC[N+](C)(C)CCCCCCCCCC: 0.5
CCCCCCCCCCCCC[N+](C)(C)CCC[N+](C)(CCC[N+](C)(C)CCCCCCCCCCCCC)CCC[N+](C)(C)CCCCCCCCCCCCC: 2
CCCCCCCC[N+](C)(C)CCCN(CCC[N+](C)(C)CCCCCCCC)CCC[N+](C)(C)CCCCCCCC: 4
C=CC[N+](CCC[N+](C)(C)CCCCCCCCCCCCC)(CCC[N+](C)(C)CCCCCCCCCCCCC)CCC[N+](C)(C)CCCCCCCCCCCCC: 2
CCCCCCCCCCCCCCCCCC[N+](C)(C)CCCN(CCC[N+](C)(C)CCCCCCCCCCCCCCCCCC)CCC[N+](C)(C)CCCCCCCCCCCCCCCCCC: 8

Req: Value lookup for MIC SA; key = CCCCCCCCCCCC[N+](C)(C)CCC[N+](C)(CCC[N+](C)(C)CCCCCCCCCCCC)CCC[N+](C)(C)CCCCCCCCCCCC
Resp: 1

Req: What does the data say about its MIC SA? Entry: CCCCCCCCCCC[N+](C)(C)CCCN(CCC[N+](C)(C)CCCCCCCCCCC)CCC[N+](C)(C)CCCCCCCCCCC
Resp: 0.5

Req: Need MIC SA, item CCCCCCCCCCCCCC[N+](C)(C)CCCN(CCC[N+](C)(C)CCCCCCCCCCCCCC)CCC[N+](C)(C)CCCCCCCCCCCCCC
Resp: 1
